- target: Cyclin-dependent kinase 5 (Rattus norvegicus, UniProt Q03114)
- Sequence (Q03114 whole entry): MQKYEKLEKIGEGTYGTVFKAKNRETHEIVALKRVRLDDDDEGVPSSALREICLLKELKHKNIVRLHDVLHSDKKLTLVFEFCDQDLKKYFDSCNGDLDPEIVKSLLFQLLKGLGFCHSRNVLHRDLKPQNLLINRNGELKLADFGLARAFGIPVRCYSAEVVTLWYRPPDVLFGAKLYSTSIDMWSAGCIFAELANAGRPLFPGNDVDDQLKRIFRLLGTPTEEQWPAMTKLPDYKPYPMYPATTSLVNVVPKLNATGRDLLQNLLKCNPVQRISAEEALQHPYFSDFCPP
- assay_procedure: Inhibition of rat fetal brain CDK5 assessed as phosphorylated histone H1 levels by immuno-precipitation
property_label: EC50 (µM)

smiles_string=COc1c(O)cc2oc(-c3ccc(O)c(O)c3)cc(=O)c2c1O experimental_value=40
smiles_string=O=c1c(O)c(-c2cc(O)c(O)c(O)c2)oc2cc(O)cc(O)c12 experimental_value=71.1
smiles_string=O=c1c(O)c(-c2ccc(O)cc2)oc2cc(O)cc(O)c12 experimental_value=66.1
